Some binders, each annotated with its measured IC50.
- TARGET SYSTEM: human Y4 receptor (human, UniProt P50391 1-375)
- Sequence (P50391 whole entry): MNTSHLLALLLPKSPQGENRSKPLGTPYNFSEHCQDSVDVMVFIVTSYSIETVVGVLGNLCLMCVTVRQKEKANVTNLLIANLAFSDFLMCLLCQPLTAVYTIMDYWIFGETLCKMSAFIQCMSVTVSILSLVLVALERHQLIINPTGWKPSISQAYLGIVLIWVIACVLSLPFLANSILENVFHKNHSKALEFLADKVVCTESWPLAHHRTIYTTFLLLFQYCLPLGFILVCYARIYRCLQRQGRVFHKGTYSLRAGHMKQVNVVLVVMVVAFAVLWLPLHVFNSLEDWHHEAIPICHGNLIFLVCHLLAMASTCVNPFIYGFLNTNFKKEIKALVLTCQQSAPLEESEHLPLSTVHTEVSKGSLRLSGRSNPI
- EXPERIMENTAL DETAILS: 125I-PP displacement
Write down the numeric answer in nM and omit the unit.

Please review the following examples before continuing.
BINDER	UNIT TAG	RESULT VALUE
AAPLEPVYPGDNATPEELNRYYASLRRYINMLTRPRY [6671]	nM	0.11
APLEPVYPGDDATPQQMAQYAAEMRRYINMLTRPRY [6667]	nM	0.18
AAPLEPVYPGDNATPEQMAQYAADLRRYINTLTRPRY [6658]	nM	0.16

Exam item: // lookup IC50 for AAPLEPVYPGDNATPEELNHYYSALRRYINMLTRPRY [6840]
Marked response: 0.17

Exam item: // lookup IC50 for KPLEPVYPGDNATPEELNRYYASLRRYINMLTRPRY [compound of SEQ ID NO:73 (code 6675)]
Marked response: 0.089
